B1: SMOC2 (parent)
chain: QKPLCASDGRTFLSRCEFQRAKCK

# Variants of: B1
# experimentSummary: protein stability index of a GFP-peptide fusion (GPS, HEK-293T) (PSI 1-6); higher = more stable;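 note: lentivirally expressed fusions sorted by FACS into six bins by GFP to DsRed ratio, PSI derived from sequencing read proportions per bin multiplied by bin number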
# measurementContext: c terminus: a fixed tail appended
Entry flag: fulfilled if protein stability index reaches 3; not fulfilled if it does not.

Some entries whose results are on file:
[
  {
    "mutationId": "P3C",
    "answerLabel": "not fulfilled"
  },
  {
    "mutationId": "T11D",
    "answerLabel": "fulfilled"
  },
  {
    "mutationId": "C5V",
    "answerLabel": "fulfilled"
  }
]

Now look at this entry.
Would you say K24L shows protein stability index at minimum 3? not fulfilled

Values were extracted from the supplement of paper PMC10567573.
